Measured IC50 by item
system: MH60; assay: Growth inhibition of IL6-dependent mouse MH60 cells after 72 hrs by MTT assay in presence of human recombinant IL6; assay type: functional, cell-based; settings: MH60, 72 h

Example results:
[
  {
    "smiles.code": "C[C@]12CC[C@H](O)C[C@H]1CC[C@@H]1[C@@H]2CC[C@]2(C)[C@@H]([C@]34C=CC(=O)O[C@H]3O4)CC[C@]12O",
    "experimental.value": "> 62.2 µM"
  },
  {
    "smiles.code": "CCCC(=O)O[C@H]1CC[C@@]2(C)[C@H](CC[C@@H]3[C@@H]2CC[C@]2(C)[C@@H]([C@]45C=CC(=O)O[C@H]4O5)C[C@H]4O[C@]342)C1",
    "experimental.value": "9.4 µM"
  },
  {
    "smiles.code": "CC(C)(C)C(=O)O[C@H]1CC[C@@]2(C)[C@H](CC[C@@H]3[C@@H]2CC[C@]2(C)[C@@H]([C@@]45C=CC(=O)O[C@@H]4O5)C[C@H]4O[C@]342)C1",
    "experimental.value": "18.1 µM"
  },
  {
    "smiles.code": "CC(=O)O[C@H]1C[C@]2(O)[C@@H]3CC[C@@H]4C[C@@H](O)CC[C@]4(C)[C@H]3CC[C@]2(C)[C@H]1c1ccc(=O)oc1",
    "experimental.value": "> 56.2 µM"
  },
  {
    "smiles.code": "CC(=O)O[C@H]1[C@H]2O[C@]23[C@@H]2CC[C@@H]4C[C@@H](O)CC[C@]4(C)[C@H]2CC[C@]3(C)[C@H]1c1ccc(=O)oc1",
    "experimental.value": "> 56.3 µM"
  },
  {
    "smiles.code": "C[C@]12CCC(=O)C[C@H]1CC[C@@H]1[C@@H]2CC[C@]2(C)[C@@H]([C@]34C=CC(=O)O[C@H]3O4)C[C@H]3O[C@]132",
    "experimental.value": "4.3 µM"
  },
  {
    "smiles.code": "C[C@]12CC[C@H](OC=O)C[C@H]1CC[C@@H]1[C@@H]2CC[C@]2(C)[C@@H]([C@]34C=CC(=O)O[C@H]3O4)C[C@H]3O[C@]132",
    "experimental.value": "8.9 µM"
  },
  {
    "smiles.code": "CC(=O)O[C@@H]1[C@H]2O[C@]23[C@@H]2CC[C@@H]4C[C@@H](O)CC[C@]4(C)[C@H]2CC[C@]3(C)[C@H]1[C@]12C=CC(=O)O[C@H]1O2",
    "experimental.value": "> 54.2 µM"
  },
  {
    "smiles.code": "C[C@]12CC[C@H](O)C[C@H]1CC[C@@H]1[C@@H]2CC[C@]2(C)[C@@H]([C@@]34C=CC(=O)O[C@@H]3O4)C[C@H]3O[C@]132",
    "experimental.value": "18.3 µM"
  },
  {
    "smiles.code": "C[C@]12CCC(=O)C[C@H]1CC[C@@H]1[C@@H]2CC[C@]2(C)[C@@H]([C@@]34C=CC(=O)O[C@@H]3O4)C[C@H]3O[C@]132",
    "experimental.value": "1.3 µM"
  }
]

Q: In one line, give reported IC50 of the entry `C[C@]12CC[C@H](OC=O)C[C@H]1CC[C@@H]1[C@@H]2CC[C@]2(C)[C@@H](c3ccc(=O)oc3)C[C@H]3O[C@]132` .
Result: > 60.7 µM

Q: Answer with reported IC50 of `CCCCC(=O)O[C@H]1CC[C@@]2(C)[C@H](CC[C@@H]3[C@@H]2CC[C@]2(C)[C@@H]([C@]45C=CC(=O)O[C@H]4O5)C[C@H]4O[C@]342)C1`
Result: 11.6 µM

Q: Identify IC50 associated with the compound `C[C@]12CC[C@H](O)C[C@H]1CC[C@@H]1[C@@H]2CC[C@]2(C)[C@@H]([C@@]34C=CC(=O)O[C@@H]3O4)CC[C@]12O`
Result: > 62.2 µM

Q: Give IC50 for `CC(=O)O[C@H]1CC[C@@]2(C)[C@H](CC[C@@H]3[C@@H]2CC[C@]2(C)[C@@H](c4ccc(=O)oc4)C[C@H]4O[C@]342)C1`
Result: > 58.7 µM

Q: Give the reported value of IC50 for this record: `CCCC(=O)O[C@H]1CC[C@@]2(C)[C@H](CC[C@@H]3[C@@H]2CC[C@]2(C)[C@@H]([C@@]45C=CC(=O)O[C@@H]4O5)C[C@H]4O[C@]342)C1`
Result: 2 µM

Q: Specify measured IC50 for `CC(=O)O[C@@H]1[C@H]2O[C@]23[C@@H]2CC[C@@H]4C[C@@H](O)CC[C@]4(C)[C@H]2CC[C@]3(C)[C@H]1[C@@]12C=CC(=O)O[C@@H]1O2` .
Result: > 54.2 µM

Q: In one line, give reported IC50 of the entry `CC(=O)O[C@H]1CC[C@@]2(C)[C@H](CC[C@@H]3[C@@H]2CC[C@]2(C)[C@@H]([C@]45C=CC(=O)O[C@H]4O5)C[C@H]4O[C@]342)C1` .
Result: 5.3 µM

Q: Supply reported IC50 belonging to this compound: `C[C@]12CC[C@H](O)C[C@H]1CC[C@@H]1[C@@H]2CC[C@]2(C)[C@@H](c3ccc(=O)oc3)C[C@H]3O[C@]132`
Result: 22.9 µM

Q: Give recorded IC50. `CC(C)(C)C(=O)O[C@H]1CC[C@@]2(C)[C@H](CC[C@@H]3[C@@H]2CC[C@]2(C)[C@@H]([C@]45C=CC(=O)O[C@H]4O5)C[C@H]4O[C@]342)C1`
Result: 6.8 µM

Q: Supply recorded IC50 for `C[C@]12CCC(=O)C[C@H]1CC[C@@H]1[C@@H]2CC[C@]2(C)[C@@H](c3ccc(=O)oc3)C[C@H]3O[C@]132` here.
Result: 2.4 µM
